Reported IC50 values are given for each entry in this list.
Biological target: OR2/OR7 (Anopheles gambiae, UniProt Q7QCC7+Q8WTE6)
Construct: Full-length cDNAs for mosquito (Anopheles gambiae) odorant receptor (OR1, OR2, OR7, OR8, OR28); expressed in transfected cells
Sequence (Q8WTE6 whole entry): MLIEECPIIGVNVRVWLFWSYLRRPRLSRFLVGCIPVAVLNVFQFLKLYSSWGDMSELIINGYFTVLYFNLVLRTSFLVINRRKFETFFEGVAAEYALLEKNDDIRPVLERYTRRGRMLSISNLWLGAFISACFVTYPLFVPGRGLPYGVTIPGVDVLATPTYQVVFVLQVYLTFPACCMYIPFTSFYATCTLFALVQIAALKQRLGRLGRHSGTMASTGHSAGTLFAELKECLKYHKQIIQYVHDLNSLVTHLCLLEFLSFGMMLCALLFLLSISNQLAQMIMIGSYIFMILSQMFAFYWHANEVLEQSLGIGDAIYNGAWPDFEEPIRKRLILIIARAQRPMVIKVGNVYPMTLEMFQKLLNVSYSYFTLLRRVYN
Sequence (Q7QCC7 whole entry): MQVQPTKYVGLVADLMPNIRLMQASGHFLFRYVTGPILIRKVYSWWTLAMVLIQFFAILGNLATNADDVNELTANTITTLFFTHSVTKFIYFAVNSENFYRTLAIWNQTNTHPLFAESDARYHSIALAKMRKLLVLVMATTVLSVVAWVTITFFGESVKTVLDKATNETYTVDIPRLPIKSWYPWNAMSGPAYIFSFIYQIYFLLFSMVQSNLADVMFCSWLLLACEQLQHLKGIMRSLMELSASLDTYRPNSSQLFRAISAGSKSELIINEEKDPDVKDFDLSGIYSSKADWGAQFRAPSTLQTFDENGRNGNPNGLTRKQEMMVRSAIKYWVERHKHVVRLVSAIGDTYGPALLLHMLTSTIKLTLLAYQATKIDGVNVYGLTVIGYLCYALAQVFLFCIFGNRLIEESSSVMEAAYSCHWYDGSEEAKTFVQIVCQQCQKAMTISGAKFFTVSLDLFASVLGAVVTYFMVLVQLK
Experiment: Ca2+-imaging of stable HEK293T cell line OR2/OR7
Format: cell-based
From the text: Full-length cDNAs for mosquito (Anopheles gambiae) odorant receptor (OR1, OR2, OR7, OR8, OR28), and fly (Drosophila melanogaster) odorant receptor (Or47a, Or83b), mouse TRP channel (TRPM8), and mouse serotonin receptor (5HT3) were obtained and subcloned into mammalian expression vectors. […] Compounds ([…] in DMSO) were stored in 384-well plates, and last two columns (32 wells total) contained only DMSO. […] Ca^2+ increase was monitored with fluorescence at 525 nm by excitation at 485 nm.
valueKind: IC50

> print(dat)
                                   compound                                    target  valuekind   testvalue
1  CCN(CC)C(=O)c1cccc(C)c1 [DEET, N,N-diethyl-m-toluamide, reference compound]  OR2/OR7 (Anopheles gambiae, UniProt Q7QCC7+Q8WTE6)       IC50     > 20 µM
2                   CCNc1nc(NC(C)C)nc(SC)n1  OR2/OR7 (Anopheles gambiae, UniProt Q7QCC7+Q8WTE6)       IC50  2 to 20 µM
3                CSc1nc(NC(C)C)nc(NC(C)C)n1  OR2/OR7 (Anopheles gambiae, UniProt Q7QCC7+Q8WTE6)       IC50  2 to 20 µM
4                   CCNc1nc(Cl)nc(NC(C)C)n1  OR2/OR7 (Anopheles gambiae, UniProt Q7QCC7+Q8WTE6)       IC50      < 2 µM
